Quick list: pEC50 per entry.
Tested on: Trypanosoma cruzi
assay_info: Antitrypanosomal activity against Trypanosoma cruzi Tulahuen strain C2C4 trypomastigotes infected in rat L6 cells incubated for 96 hrs by photometric method based assay
Format: functional, organism-based
particulars: Tulahuen strain C2C4, L6, 96 h
# log scale: pEC50 equals minus log10 of the concentration in mol/L

Some solved cases for reference:
{"entry_smiles": "CCC[C@H]1CC[C@@H](n2c(=O)[nH]c3ccc(NC(C)=O)cc3c2=O)CC1", "pEC50": 7.70}
{"entry_smiles": "CC(=O)Nc1ccc2[nH]c(=O)n([C@H]3CC[C@@H](C(F)(F)F)CC3)c(=O)c2c1", "pEC50": 5.37}
{"entry_smiles": "CC(C)(C)[C@H]1CC[C@@H](n2c(=O)[nH]c3ncc(N)cc3c2=O)CC1", "pEC50": 6.62}
{"entry_smiles": "CC[C@H]1CC[C@@H](n2c(=O)[nH]c3ncc(NC(C)=O)cc3c2=O)CC1", "pEC50": 6.48}

Ask: # lookup: pEC50 of CC(=O)Nc1cnc2[nH]c(=O)n([C@H]3CC[C@@H](C(C)C)CC3)c(=O)c2c1
Reply: 6.42

Ask: # lookup: pEC50 of CC(=O)Nc1ccc2[nH]c(=O)n([C@H]3CC[C@@H](NC(=O)OC(C)(C)C)CC3)c(=O)c2c1
Reply: 5.59

Ask: # lookup: pEC50 of CC(=O)Nc1ccc2[nH]c(=O)n(CCCc3ccccc3)c(=O)c2c1
Reply: 5.12
